# tgt: T1, hPD-1-Fc (human, UniProt Q15116 25-167)
# T1 construct: domain: IgV domain; also called human PD-1-Fc; not shown: human IgG1 Fc
# assayComment: SPR Biacore, hPD1-Fc
quantityKind: Kd (nM)
Numbers only, in nM.

{"binder": "m2C1 (antibody, V domains shown, R3A9 derivative; also called m3CM (apparent misprint)) VH: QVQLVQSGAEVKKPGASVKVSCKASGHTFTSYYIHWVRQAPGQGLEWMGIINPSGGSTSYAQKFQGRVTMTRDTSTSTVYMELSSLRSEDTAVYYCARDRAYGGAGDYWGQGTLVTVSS VL: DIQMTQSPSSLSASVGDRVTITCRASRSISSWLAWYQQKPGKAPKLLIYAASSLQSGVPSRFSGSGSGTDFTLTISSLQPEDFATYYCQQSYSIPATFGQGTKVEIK", "recordedValue": 2.81}

Continue with the binder presented below.
Param item = m4D1 (antibody, V domains shown, R3A9 derivative) VH: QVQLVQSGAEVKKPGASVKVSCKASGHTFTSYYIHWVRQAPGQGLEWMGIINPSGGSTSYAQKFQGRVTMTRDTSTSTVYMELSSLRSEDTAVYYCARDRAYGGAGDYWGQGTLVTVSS VL: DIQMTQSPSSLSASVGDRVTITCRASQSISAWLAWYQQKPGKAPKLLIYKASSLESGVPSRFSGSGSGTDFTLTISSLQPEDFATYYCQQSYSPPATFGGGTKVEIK ; retrieve measured Kd.
1.09
